# MEASURED_TARGET: UGT2B15 (Homo sapiens)
# Construct: expressed in transfected cells; cell homogenate
# Sequence (P54855 24-530): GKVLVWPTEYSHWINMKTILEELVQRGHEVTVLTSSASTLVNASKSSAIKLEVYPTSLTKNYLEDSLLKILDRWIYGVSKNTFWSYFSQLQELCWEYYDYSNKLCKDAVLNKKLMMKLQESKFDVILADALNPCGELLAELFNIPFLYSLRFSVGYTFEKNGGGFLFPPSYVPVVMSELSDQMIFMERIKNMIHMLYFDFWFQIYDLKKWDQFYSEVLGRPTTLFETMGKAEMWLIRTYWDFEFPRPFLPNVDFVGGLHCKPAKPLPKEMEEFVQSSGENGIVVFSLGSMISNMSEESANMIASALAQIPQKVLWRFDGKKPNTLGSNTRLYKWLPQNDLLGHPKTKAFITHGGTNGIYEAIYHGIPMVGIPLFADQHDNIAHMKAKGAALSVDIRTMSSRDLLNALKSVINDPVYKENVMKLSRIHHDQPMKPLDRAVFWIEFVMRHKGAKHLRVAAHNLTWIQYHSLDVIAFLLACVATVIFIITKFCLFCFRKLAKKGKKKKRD
# ASSAY_NOTES: Inhibition of S-oxazepam glucuronidation in rUGT2B15 homogenate/microsomes (UGT-overexpressing HEK293)
# Assay type: biochemical
# REPORTED_CONDITIONS: human, pH 7.4, probe R,S-oxazepam 12 µM, oxazepam glucuronide formation; rUGT2B15 microsomes, 100 µM ketoconazole; range over the three enzymes

>  <COMPOUND>
CC(=O)N1CCN(c2ccc(OCC3COC(Cn4ccnc4)(c4ccc(Cl)cc4Cl)O3)cc2)CC1 (stereo not shown)

>  <inhibition at 2 h, 100 µM>
49 to 85%

$$$$
